// values below are reported MIC
Tested on: MRSA (NRS70, NRS119)
Experiment: MIC against MRSA strains
Assay type: cell-based, Staphylococcus aureus
Details: Staphylococcus aureus, NRS70 strain; Table 2 (SAR^1); read-out: MIC MRSA
Only the number, expressed in µg/mL, is required.

Solved entries (count: 5):
1. C#CCCCCCOC(=O)c1cnc(NC(=O)c2ccnc(-c3ccc(Cl)c(Cl)c3)c2)o1 | 0.06
2. O=C(Nc1nc2ncccc2o1)c1ccnc(-c2ccc(Cl)c(Cl)c2)c1 | 0.25
3. O=C(Nc1ncco1)c1ccnc(-c2ccc(Cl)c(Cl)c2)c1 | 0.25
4. O=C(Nc1ncc(C(=O)N2CCOCC2)o1)c1ccnc(-c2ccc(Cl)c(Cl)c2)c1 | 2
5. O=C(Nc1ncc(C(=O)O)o1)c1ccnc(-c2ccc(Cl)c(Cl)c2)c1 | 64

Problem: Entry under review: O=C(Nc1nc2ccccc2o1)c1ccnc(-c2ccc(Cl)c(Cl)c2)c1 . Reported MIC?
Solution: 1

Problem: And then Cl.Cl.O=C(Nc1ncc(C(=O)N2CCNCC2)o1)c1ccnc(-c2ccc(Cl)c(Cl)c2)c1 , what is it?
Solution: 16

Problem: And then O=C(Nc1ncc(C(=O)OCCCCCCO)o1)c1ccnc(-c2ccc(Cl)c(Cl)c2)c1 , what is it?
Solution: 0.25

====

// values below are reported MIC
Test system: C. difficile
Experiment: MIC by broth microdilution against C. difficile strains
Type: cell-based, Clostridioides difficile
Settings: Clostridioides difficile, BAA1804, C. difficile BAA-1804; Table 7; read-out: MIC
Only the number, expressed in µg/mL, is required.

1. CN[C@H](CC(C)C)C(=O)N[C@H]1C(=O)N[C@@H](CC(N)=O)C(=O)N[C@H]2C(=O)N[C@H]3C(=O)N[C@H](C(=O)N[C@H](C(=O)O)c4cc(O)cc(O)c4-c4cc3ccc4O)[C@H](O)c3ccc(c(Cl)c3)Oc3cc2cc(c3O[C@@H]2O[C@H](CO)[C@@H](O)[C@H](O)[C@H]2O[C@H]2C[C@](C)(N)[C@H](O)[C@H](C)O2)Oc2ccc(cc2Cl)[C@H]1O [VAN, vancomycin, reference compound] | 1
2. O=C(Nc1ncco1)c1cc(-c2ccc(Cl)c(Cl)c2)ccn1 | 0.125
3. O=C(Nc1ncco1)c1cc(Oc2cccc(OC(F)(F)F)c2)ccn1 | 0.25
4. O=C(Nc1ncco1)c1ccnc(-c2ccc(Cl)c(Cl)c2)c1 | 0.0625

Let us move to another entry and its MIC.
Problem: Entry under review: Cc1ncc([N+](=O)[O-])n1CCO [MTZ, metronidazole, reference compound] . Reported MIC?
Solution: 0.25

====

Tested on: Lactobacillus reuteri
Test: MIC against gut bacterium Lactobacillus reuteri
Type: cell-based
Conditions: Lactobacillus reuteri strain HM-102; Table 7
// values below are reported MIC

1. CN[C@H](CC(C)C)C(=O)N[C@H]1C(=O)N[C@@H](CC(N)=O)C(=O)N[C@H]2C(=O)N[C@H]3C(=O)N[C@H](C(=O)N[C@H](C(=O)O)c4cc(O)cc(O)c4-c4cc3ccc4O)[C@H](O)c3ccc(c(Cl)c3)Oc3cc2cc(c3O[C@@H]2O[C@H](CO)[C@@H](O)[C@H](O)[C@H]2O[C@H]2C[C@](C)(N)[C@H](O)[C@H](C)O2)Oc2ccc(cc2Cl)[C@H]1O [VAN, vancomycin, reference compound] | >32 µg/mL
2. O=C(O)c1ccc2oc(NC(=O)c3cc(Oc4cccc(OC(F)(F)F)c4)ccn3)nc2c1 | 4 µg/mL
3. Cc1ncc([N+](=O)[O-])n1CCO [MTZ, metronidazole, reference compound] | >32 µg/mL

Problem: Query for Lactobacillus reuteri: what MIC does the record show for CCc1c(Cl)c(O)c(Cl)c(O)c1C(=O)O[C@H]1[C@H](O)[C@H](OC)[C@H](OC/C2=C\C=C\C[C@H](O)/C(C)=C/[C@H](CC)[C@@H](O[C@@H]3OC(C)(C)[C@@H](OC(=O)C(C)C)[C@H](O)[C@@H]3O)/C(C)=C/C(C)=C/C[C@@H]([C@@H](C)O)OC2=O)O[C@@H]1C [FDX, fidaxomicin, reference compound] ?
Solution: >32 µg/mL

====

// values below are reported MIC
System: Lactobacillus gasseri
Experiment: MIC against gut bacterium Lactobacillus gasseri
Format: cell-based
Details: Lactobacillus gasseri; Lactobacillus gasser strain HM-644; Table 1; read-out: MIC
Only the number, expressed in µg/mL, is required.

1) CCc1c(Cl)c(O)c(Cl)c(O)c1C(=O)O[C@H]1[C@H](O)[C@H](OC)[C@H](OC/C2=C\C=C\C[C@H](O)/C(C)=C/[C@H](CC)[C@@H](O[C@@H]3OC(C)(C)[C@@H](OC(=O)C(C)C)[C@H](O)[C@@H]3O)/C(C)=C/C(C)=C/C[C@@H]([C@@H](C)O)OC2=O)O[C@@H]1C [FDX, fidaxomicin, reference compound] | 2

Let us move to another entry and its MIC.
Problem: Entry under review: CN[C@H](CC(C)C)C(=O)N[C@H]1C(=O)N[C@@H](CC(N)=O)C(=O)N[C@H]2C(=O)N[C@H]3C(=O)N[C@H](C(=O)N[C@H](C(=O)O)c4cc(O)cc(O)c4-c4cc3ccc4O)[C@H](O)c3ccc(c(Cl)c3)Oc3cc2cc(c3O[C@@H]2O[C@H](CO)[C@@H](O)[C@H](O)[C@H]2O[C@H]2C[C@](C)(N)[C@H](O)[C@H](C)O2)Oc2ccc(cc2Cl)[C@H]1O [VAN, vancomycin, reference compound] . Reported MIC?
Solution: 1

====

// values below are reported MIC
Test system: S. aureus ATCC29213
Assay: MIC against MSSA
Type: cell-based, Staphylococcus aureus
Settings: Staphylococcus aureus; S. aureus ATCC29213; Table 1; read-out: MIC
Only the number, expressed in µg/mL, is required.

Problem: Entry under review: CN[C@H](CC(C)C)C(=O)N[C@H]1C(=O)N[C@@H](CC(N)=O)C(=O)N[C@H]2C(=O)N[C@H]3C(=O)N[C@H](C(=O)N[C@H](C(=O)O)c4cc(O)cc(O)c4-c4cc3ccc4O)[C@H](O)c3ccc(c(Cl)c3)Oc3cc2cc(c3O[C@@H]2O[C@H](CO)[C@@H](O)[C@H](O)[C@H]2O[C@H]2C[C@](C)(N)[C@H](O)[C@H](C)O2)Oc2ccc(cc2Cl)[C@H]1O [VAN, vancomycin, reference compound] . Reported MIC?
Solution: 1

Problem: And then O=C(O)c1ccc2oc(NC(=O)c3cc(Oc4cccc(OC(F)(F)F)c4)ccn3)nc2c1 , what is it?
Solution: 64

Problem: And then CCc1c(Cl)c(O)c(Cl)c(O)c1C(=O)O[C@H]1[C@H](O)[C@H](OC)[C@H](OC/C2=C\C=C\C[C@H](O)/C(C)=C/[C@H](CC)[C@@H](O[C@@H]3OC(C)(C)[C@@H](OC(=O)C(C)C)[C@H](O)[C@@H]3O)/C(C)=C/C(C)=C/C[C@@H]([C@@H](C)O)OC2=O)O[C@@H]1C [FDX, fidaxomicin, reference compound] , what is it?
Solution: 8

====

Tested on: C. difficile
Assay: MIC by broth microdilution against C. difficile strains
Type: cell-based, Clostridioides difficile
Conditions: Clostridioides difficile, C. difficile NR-49328; Table 9; read-out: MIC
// values below are reported MIC
Only the number, expressed in µg/mL, is required.

Problem: Entry under review: CCc1c(Cl)c(O)c(Cl)c(O)c1C(=O)O[C@H]1[C@H](O)[C@H](OC)[C@H](OC/C2=C\C=C\C[C@H](O)/C(C)=C/[C@H](CC)[C@@H](O[C@@H]3OC(C)(C)[C@@H](OC(=O)C(C)C)[C@H](O)[C@@H]3O)/C(C)=C/C(C)=C/C[C@@H]([C@@H](C)O)OC2=O)O[C@@H]1C [FDX, fidaxomicin, reference compound] . Reported MIC?
Solution: 0.03

Problem: And then O=C(O)c1ccc2oc(NC(=O)c3cc(Oc4cccc(OC(F)(F)F)c4)ccn3)nc2c1 [Compound 1] , what is it?
Solution: 0.06

Problem: And then CN[C@H](CC(C)C)C(=O)N[C@H]1C(=O)N[C@@H](CC(N)=O)C(=O)N[C@H]2C(=O)N[C@H]3C(=O)N[C@H](C(=O)N[C@H](C(=O)O)c4cc(O)cc(O)c4-c4cc3ccc4O)[C@H](O)c3ccc(c(Cl)c3)Oc3cc2cc(c3O[C@@H]2O[C@H](CO)[C@@H](O)[C@H](O)[C@H]2O[C@H]2C[C@](C)(N)[C@H](O)[C@H](C)O2)Oc2ccc(cc2Cl)[C@H]1O [VAN, vancomycin, reference compound] , what is it?
Solution: 0.25

Problem: And then Cc1ncc([N+](=O)[O-])n1CCO [MTZ, metronidazole, reference compound] , what is it?
Solution: 0.25

====

Tested on: C. difficile
Experiment: MIC by broth microdilution against C. difficile strains
Type: cell-based, Clostridioides difficile
Details: Clostridioides difficile, C. difficile NR-32895; Table 9; read-out: MIC
// values below are reported MIC
Only the number, expressed in µg/mL, is required.

1) Cc1ncc([N+](=O)[O-])n1CCO [MTZ, metronidazole, reference compound] | 1
2) O=C(O)c1ccc2oc(NC(=O)c3cc(Oc4cccc(OC(F)(F)F)c4)ccn3)nc2c1 | 0.25
3) CCc1c(Cl)c(O)c(Cl)c(O)c1C(=O)O[C@H]1[C@H](O)[C@H](OC)[C@H](OC/C2=C\C=C\C[C@H](O)/C(C)=C/[C@H](CC)[C@@H](O[C@@H]3OC(C)(C)[C@@H](OC(=O)C(C)C)[C@H](O)[C@@H]3O)/C(C)=C/C(C)=C/C[C@@H]([C@@H](C)O)OC2=O)O[C@@H]1C [FDX, fidaxomicin, reference compound] | 0.03

Let us move to another entry and its MIC.
Problem: Entry under review: CN[C@H](CC(C)C)C(=O)N[C@H]1C(=O)N[C@@H](CC(N)=O)C(=O)N[C@H]2C(=O)N[C@H]3C(=O)N[C@H](C(=O)N[C@H](C(=O)O)c4cc(O)cc(O)c4-c4cc3ccc4O)[C@H](O)c3ccc(c(Cl)c3)Oc3cc2cc(c3O[C@@H]2O[C@H](CO)[C@@H](O)[C@H](O)[C@H]2O[C@H]2C[C@](C)(N)[C@H](O)[C@H](C)O2)Oc2ccc(cc2Cl)[C@H]1O [VAN, vancomycin, reference compound] . Reported MIC?
Solution: 2
